Target: KAI2^ply2 (KAI2^A219V) (Arabidopsis thaliana, UniProt Q9SZU7, A219V)
Construct: full-length, recombinant from E. coli, His tag removed
Sequence (Q9SZU7 whole entry A219V): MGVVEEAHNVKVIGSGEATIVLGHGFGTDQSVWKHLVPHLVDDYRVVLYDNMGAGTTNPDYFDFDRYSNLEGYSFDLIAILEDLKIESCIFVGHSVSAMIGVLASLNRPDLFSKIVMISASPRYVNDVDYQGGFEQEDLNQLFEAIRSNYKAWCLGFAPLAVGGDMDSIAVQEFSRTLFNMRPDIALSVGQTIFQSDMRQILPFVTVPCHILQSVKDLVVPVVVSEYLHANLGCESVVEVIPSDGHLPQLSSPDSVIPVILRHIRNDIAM
Test: ITC ([…] °C); strongly impaired binding, only marginal change in CPM assay
pKd: −log10 of the molar value.
Value Type: pKd

>>> print(df.to_string())
                                   compound  value_type  endpoint_value
0  Cc1c2ccocc-2oc1=O [KAR1, 3-methyl-2H-furo[2,3-c]pyran-2-one]         pKd            2.54

====

Target: KARRIKIN INSENSITIVE2 (KAI2) (Arabidopsis thaliana, UniProt Q9SZU7)
Construct: full-length, recombinant from E. coli, His tag removed
Sequence (Q9SZU7 whole entry): as the sequence (Q9SZU7 whole entry A219V) above, with V219A counted along it
Test: ITC ([…] °C); supported by CPM thermal shift
pKd: −log10 of the molar value.
Value Type: pKd

>>> df
                                   molecule  value_type  endpoint_value
0  Cc1c2ccocc-2oc1=O [KAR1, 3-methyl-2H-furo[2,3-c]pyran-2-one]         pKd            3.83
